Target: viral reverse transcriptase (Human immunodeficiency virus type 1 group M subtype B, UniProt P04585)
Construct: Viral reverse transcriptase is found in extracts from bacterial clones; made in house; host or cells: Escherichia coli (extracts of bacterial clones, by the procedure of Larder et al., EMBO J. 6:3133-3137, 1987)
Assay: Viral reverse transcriptase inhibition, cell free assay
Format: biochemical, human immunodeficiency virus (HIV-1)
Settings: read-out: RT % INHIBITION (100 μM), 100 μM; poly rC or poly rG template
// NO strictly below 90% in inhibition at 100 µM; YES otherwise

[[record]]
compound_smiles = "CC(C)Nc1cccnc1N1CCN(Cc2cc3cc(F)ccc3[nH]2)CC1"
group = "YES"

[[record]]
compound_smiles = "CC(C)Nc1cccnc1N1CCN(C(=O)c2cc3ccccc3[nH]2)CC1"
group = "YES"

[[record]]
compound_smiles = "CC(C)Nc1cccnc1N1CCN(C(=O)c2cc3c(ccc4ccccc43)[nH]2)CC1"
group = "NO"

[[record]]
compound_smiles = "CCNc1ccccc1N1CCN(C(=O)c2cc3cc(OC)ccc3[nH]2)CC1"
group = "NO"

[[record]]
compound_smiles = "CC(C)Nc1cccnc1N1CCN(C(=O)c2cc3cc(F)ccc3[nH]2)CC1"
group = "YES"

[[record]]
compound_smiles = "CC(C)Nc1cccnc1N1CCN(C(=O)c2ccc[nH]2)CC1"
group = "YES"

